experiment: soluble on expression in E. coli; label from the status in PepcDB or PDB records

chainSequence	soluble on expression in E. coli
MITLPTGTKIWIIAGITDMRCGFNGLASKVQNTLKDDPFSGHIFVFRGRSGKMVKILWADRDGLCLFAKRLERGRFVWPVTREGKVHLTPAQLSMLLEGIAWPHPKRTERPGIRI	not soluble
MEILSGRSSIIIDTDPINVYNQAHPPFSFPIPAKDVMSVASRPDLRNENLMVFSSIEGDLALLKSMNLPANVKIVYDNTDGSWVRYYPYAFYRSINAEELYAKIDDFVVLDIREEFELFSGFIEGSVNIPFSSIMQEPVELDKNRKYAVVCAHGNRSRVAVELLSSKGIEVYDVPGGMQKWLETGLPVSYEED	not soluble
